Measured values drawn from paper PMC6792352 for this set.

# PROTOCOL_SUMMARY: in vitro
# EXPERIMENTAL_CONDITIONS: rat, gh3-tre-luc cells, AC50 (uM) modified / 1000
Please go through the items and note down their CC50 at 24 h.

INPUT: Given CO[C@@H]1[C@@H](O[C@@H]2O[C@H](C)[C@@H](O[C@H]3C[C@@](C)(O)[C@@H](OC(=O)CC(C)C)[C@H](C)O3)[C@H](N(C)C)[C@H]2O)[C@@H](CC=O)C[C@@H](C)C(=O)/C=C/[C@@H]2O[C@H]2C[C@@H](C)OC(=O)C[C@H]1OC(C)=O , respond with its CC50 at 24 h.
OUTPUT: 34.1 µM

INPUT: Given NS(=O)(=O)c1ccc(C(=O)O)cc1 [Carzenide] , respond with its CC50 at 24 h.
OUTPUT: > 50 µM

INPUT: Given O=C(O)c1ccc2cc(O)ccc2c1 [6-Hydroxy-2-naphthoic acid] , respond with its CC50 at 24 h.
OUTPUT: > 90 µM

INPUT: Given CCCCN(CCCC)C(=S)SSC(=S)N(CCCC)CCCC [Tetrabutylthiuram disulfide] , respond with its CC50 at 24 h.
OUTPUT: > 90 µM

INPUT: Given O=C(NCCNCC(O)COc1ccc(O)cc1)N1CCOCC1 (centres unmarked) , respond with its CC50 at 24 h.
OUTPUT: > 50 µM

INPUT: Given O=C1CCCCCCCCCCCCCC1 , respond with its CC50 at 24 h.
OUTPUT: 60.9 µM

INPUT: Given C=CC(=O)CCCCC , respond with its CC50 at 24 h.
OUTPUT: > 100 µM

INPUT: Given CCC(C)(C)C(=O)O , respond with its CC50 at 24 h.
OUTPUT: > 90 µM

* * *

# Tested on: GH3-TRE-Luc cell line
# EXPERIMENTAL_CONDITIONS: read-out: AC50 (uM) modified / 1000; Tox21_110001=Tox21_111021; viability, 1 nM T3 present, 24 h
Structures can show the parent of a compound that is named as a salt.
METRIC_NAME: CC50
// unit must come after the numeric part

INPUT: Given Cc1c(O)cccc1C(=O)N[C@@H](CSc1ccccc1)[C@H](O)CN1C[C@H]2CCCC[C@H]2C[C@H]1C(=O)NC(C)(C)C [Nelfinavir mesylate] , respond with its CC50.
OUTPUT: 3.68 µM

* * *

# Tested on: GH3-TRE-Luc cell line
# EXPERIMENTAL_CONDITIONS: read-out: AC50 (uM) modified / 1000; Tox21_110001=Tox21_113580; viability, 1 nM T3 present, 24 h
METRIC_NAME: CC50

INPUT: Provide CC50, system GH3-TRE-Luc cell line, entry C[C@@H]1C[C@@H]([C@H](O)CC2CC(=O)NC(=O)C2)C(=O)[C@@H](C)C1 [Cycloheximide]
OUTPUT: 0.256 µM

* * *

# PROTOCOL_SUMMARY: in vitro
# EXPERIMENTAL_CONDITIONS: rat, gh3-tre-luc cells, AC50 (uM) modified / 1000
Counter-ions that a name gives are not always drawn.
METRIC_NAME: CC50 at 24 h

INPUT: Given BrCC(Br)C1CCC(Br)C(Br)C1 (stereo not shown) , respond with its CC50 at 24 h.
OUTPUT: 55.8 µM

INPUT: Given COc1ccc(Cl)cc1C , respond with its CC50 at 24 h.
OUTPUT: > 100 µM

INPUT: Given C=C[C@@H](C)CCC=C(C)C [(S)-Citronellene] , respond with its CC50 at 24 h.
OUTPUT: > 90 µM

INPUT: Given CCN[C@@H]1C[C@H](N)[C@@H](O[C@H]2OC(CN)=CC[C@H]2N)[C@H](O)[C@H]1O[C@H]1OC[C@](C)(O)[C@H](NC)[C@H]1O [Netilmicin sulfate] , respond with its CC50 at 24 h.
OUTPUT: > 50 µM

INPUT: Given COc1cc(Cl)c(OC)cc1N , respond with its CC50 at 24 h.
OUTPUT: > 90 µM

INPUT: Given CCCCCCCCCCCC[N+](C)(C)CCCCCCCCCCCC [Didodecyldimethylammonium bromide] , respond with its CC50 at 24 h.
OUTPUT: 12.2 µM

INPUT: Given CCN(Cc1ccc(Cl)nc1)/C(=C/[N+](=O)[O-])NC [(E)-Nitenpyram] , respond with its CC50 at 24 h.
OUTPUT: > 50 µM

INPUT: Given Clc1cc(Cl)c(Cl)cc1Cl , respond with its CC50 at 24 h.
OUTPUT: > 90 µM

INPUT: Given Fc1ccccc1-c1ccccc1 , respond with its CC50 at 24 h.
OUTPUT: > 90 µM

INPUT: Given CC(=O)OCC(=O)[C@@]12OC3(CCCC3)O[C@@H]1C[C@H]1[C@@H]3CCC4=CC(=O)C=C[C@]4(C)[C@@]3(F)[C@@H](O)C[C@@]12C [Amcinonide] , respond with its CC50 at 24 h.
OUTPUT: > 50 µM

INPUT: Given CC(C)C(C(=O)OC(C#N)c1cccc(Oc2ccccc2)c1)c1ccc(OC(F)F)cc1 (stereo not shown) [Flucythrinate] , respond with its CC50 at 24 h.
OUTPUT: > 90 µM

INPUT: Given CCc1cccc(CC)c1NC(=O)CN(CC(=O)O)CC(=O)O , respond with its CC50 at 24 h.
OUTPUT: > 20 µM

INPUT: Given CC(C)NCC(O)c1ccc([N+](=O)[O-])cc1 (stereo not shown) , respond with its CC50 at 24 h.
OUTPUT: > 50 µM

INPUT: Given COc1ccccc1OC(=O)Oc1ccccc1OC [Guaiacol carbonate] , respond with its CC50 at 24 h.
OUTPUT: > 50 µM

INPUT: Given CN(C)c1ccc(N=NS(=O)(=O)O)cc1 , respond with its CC50 at 24 h.
OUTPUT: > 90 µM

INPUT: Given N#Cc1ccccc1C#N , respond with its CC50 at 24 h.
OUTPUT: > 70 µM

INPUT: Given CCC(C)c1cc(C(C)(C)C)c(O)c(C(C)(C)C)c1 (stereo not shown) , respond with its CC50 at 24 h.
OUTPUT: > 90 µM

INPUT: Given O=C(O)c1cccc(-c2noc(-c3ccccc3F)n2)c1 , respond with its CC50 at 24 h.
OUTPUT: > 50 µM

INPUT: Given CCCCCCCCCCCCCCCCCC(=O)OCCO [2-Hydroxyethyl octadecanoate] , respond with its CC50 at 24 h.
OUTPUT: > 50 µM
